Test system: MKN-45
Assay: Antiproliferative activity against human MKN-45 cells assessed as reduction in cell viability measured after 72 hrs by CellTiterGlo luminescent assay
Assay type: functional, cell-based
Settings: MKN-45, 72 h
pIC50: −log10 of the molar value.
reported_property: pIC50

In [3]: df
Out[3]:
                            chemical_smiles  recorded_measurement
0  CCN1CCN(c2ccc(C(=O)Nc3cc(-c4ccc5ncn(Cc6c(Cl)cccc6Cl)c5c4)[nH]n3)cc2)CC1                  5.39

* * *

Test system: MV4-11
Experiment: Antiproliferative activity against human MV4-11 cells assessed as inhibition of cell growth incubated for 72 hrs by CellTiterGlo luminescent assay
Assay type: functional, cell-based
Settings: MV4-11, 72 h
Listing of recorded IC50 by entry.
reported_property: IC50 (nM)

>>> df
                                    compound  recorded_measurement
 0  CN(C)CCNc1ccc(C(=O)Nc2cc(-c3ccc4ncn(Cc5c(Cl)cccc5Cl)c4c3)[nH]n2)cc1                  3.14
 1  CN1CCC(Nc2ccc(C(=O)Nc3cc(-c4ccc5ncn(Cc6ccc(Cl)cc6)c5c4)[nH]n3)cc2)CC1                   219
 2  CN1CCC(Nc2ccc(C(=O)Nc3cc(-c4ccc5ncn(Cc6ccccc6Cl)c5c4)[nH]n3)cc2)CC1                  25.4
 3  O=C(Nc1cc(-c2ccc3ncn(Cc4c(Cl)cccc4Cl)c3c2)[nH]n1)c1ccc(N2CC3CC2CO3)cc1 (centres undefined)                  2.88
 4  CC(=O)N1CCN(c2ccc(C(=O)Nc3cc(-c4ccc5ncn(Cc6c(Cl)cccc6Cl)c5c4)[nH]n3)cc2)CC1                   1.1
 5  CN(C)CCN(C)c1ccc(C(=O)Nc2cc(-c3ccc4ncn(Cc5c(Cl)cccc5Cl)c4c3)[nH]n2)cc1                  2.78
 6  CN1CCC(Nc2ccc(C(=O)Nc3cc(-c4ccc5ncn(Cc6ccccc6F)c5c4)[nH]n3)cc2)CC1                  90.6
 7  CN1CCC(Nc2ccc(C(=O)Nc3cc(-c4ccc5ncn(Cc6c(Cl)cccc6Cl)c5c4)[nH]n3)cc2)CC1                  0.77
 8  CCN1CCN(c2ccc(C(=O)Nc3cc(-c4ccc5ncn(Cc6ccccc6Cl)c5c4)[nH]n3)cc2)CC1                  12.4
 9  Cc1cc(C(=O)Nc2cc(-c3ccc4ncn(Cc5ccccc5)c4c3)[nH]n2)ccc1NC1CCN(C)CC1                  48.2
10  O=C(Nc1cc(-c2ccc3ncn(Cc4c(Cl)cccc4Cl)c3c2)[nH]n1)c1ccc(N2CCOCC2)cc1                  3.61
11  CN1CCC(Nc2ccc(C(=O)Nc3cc(-c4ccc5ncn(Cc6ccccc6)c5c4)[nH]n3)c(F)c2)CC1                  99.3
12  CN1CCC(Nc2ccc(C(=O)Nc3cc(-c4ccc5ncn(Cc6cccc(F)c6)c5c4)[nH]n3)cc2)CC1                  18.5
13  CN1CCC(Nc2ccc(C(=O)Nc3cc(-c4ccc5ncn(C6CCCC6)c5c4)[nH]n3)cc2)CC1                  68.2
14  CN1CCC(Nc2ccc(C(=O)Nc3cc(-c4ccc5ccn(Cc6ccccc6)c5c4)[nH]n3)cc2)CC1                  75.6
15  CCN1CCN(c2ccc(C(=O)Nc3cc(-c4ccc5ncn(Cc6cc(F)ccc6Cl)c5c4)[nH]n3)cc2)CC1                  12.6
16  CN1CCN(c2ccc(C(=O)Nc3cc(-c4ccc5ncn(Cc6ccccc6Cl)c5c4)[nH]n3)cc2)CC1                    30
17  CN1CCC(Nc2ccc(C(=O)Nc3cc(-c4ccc5ncn(Cc6ccc(F)cc6)c5c4)[nH]n3)cc2)CC1                  23.6
18  Cc1ccccc1Cn1cnc2ccc(-c3cc(NC(=O)c4ccc(NC5CCN(C)CC5)cc4)n[nH]3)cc21                  29.7
19  O=C(Nc1cc(-c2ccc3ncn(Cc4ccccc4)c3c2)[nH]n1)c1ccccc1                   219
20  CCN1CCN(c2ccc(C(=O)Nc3cc(-c4ccc5ncn(Cc6c(C)cccc6C)c5c4)[nH]n3)cc2)CC1                  4.85
21  CN1CCCN(c2ccc(C(=O)Nc3cc(-c4ccc5ncn(Cc6c(Cl)cccc6Cl)c5c4)[nH]n3)cc2)CC1                  1.38
22  CCN1CCN(c2ccc(C(=O)Nc3cc(-c4ccc5ncn(Cc6cccc(F)c6Cl)c5c4)[nH]n3)cc2)CC1                  12.5
23  CN1CCC(Nc2ccc(C(=O)Nc3cc(-c4ccc5c(c4)ncn5Cc4ccccc4)[nH]n3)cc2)CC1                  58.4
